target.of.assay: human PD-1 (Jurkat-PD-1 cells) / PE-labeled human PD-L1-Ig (Homo sapiens)
Construct: expressed in transfected cells; host or cells: Jurkat cell line over-expressing human PD-1
Sequence (Q15116 25-288): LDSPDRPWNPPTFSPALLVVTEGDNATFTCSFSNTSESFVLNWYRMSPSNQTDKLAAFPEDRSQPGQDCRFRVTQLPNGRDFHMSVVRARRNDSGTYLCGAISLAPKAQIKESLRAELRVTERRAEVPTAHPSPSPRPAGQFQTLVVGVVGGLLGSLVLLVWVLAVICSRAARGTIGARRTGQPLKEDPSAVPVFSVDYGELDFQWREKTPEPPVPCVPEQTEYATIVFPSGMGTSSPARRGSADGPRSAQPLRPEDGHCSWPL
assay.remarks: Jurkat-PD-1 Cell Binding High-Content Screening Assay (CBA); Jurkat hPD1-PDL1 assay
condition.context: Jurkat cell line over-expressing human PD-1; PE-labeled PD-L1-Ig 20 nM final; compound incubated 2 hours at 37° C.; read-out: Jurkat HPD1-PDL1 IC50
Positions of bridges follow the written chain, without caps; N, C: chain ends. Non-standard residues stand in square brackets, D forms with d. Residues, ends and D or L forms follow the SMILES beside them. ξ: configuration not given here. Bip = N[C@@H](Cc1ccc(-c2ccccc2)cc1)C(=O)O; 1Nal = N[C@@H](Cc1cccc2ccccc12)C(=O)O; NMeF = CN[C@@H](Cc1ccccc1)C(=O)O; NMeA = CN[C@@H](C)C(=O)O; Orn = NCCC[C@H](N)C(=O)O; Dab = NCC[C@H](N)C(=O)O; ξE = NC(CCC(=O)O)C(=O)O; Sar = CNCC(=O)O
measured.attribute: IC50 (µM)
Numeric answer only, unit µM assumed.

- molecule: "CC(C)C[C@@H]1NC(=O)[C@H](Cc2c[nH]c3ccccc23)NC(=O)[C@H](CC(=O)O)NC(=O)[C@H](Cc2ccc(O)cc2)NC(=O)[C@H](Cc2ccccc2)NC(=O)CSC[C@@H](C(=O)N[C@@H](C)C(N)=O)NC(=O)[C@H]([C@@H](C)O)NC(=O)[C@H](CCCCN)NC(=O)[C@H](CC(C)C)NC(=O)[C@H](CC(N)=O)NC(=O)[C@H]2CCCN2C(=O)[C@H](C)N(C)C(=O)[C@H](C(C)C)NC(=O)[C@H](Cc2ccc(-c3ccccc3)cc2)NC1=O [Example 1089] ({CH2CO}-FYDWL[Bip]V[NMeA][dP]NLKTCA-NH2; thioether N-14)"
  IC50, µM: 0.25
- molecule: "CC(C)C[C@@H]1NC(=O)[C@H](Cc2c[nH]c3ccccc23)NC(=O)[C@H](CC(=O)O)NC(=O)[C@H](Cc2ccc(O)cc2)NC(=O)[C@H](CC(N)=O)NC(=O)CSC[C@@H](C(=O)NCC(N)=O)NC(=O)[C@H](CO)NC(=O)[C@H](C(C)C)NC(=O)[C@H](CC(C)C)NC(=O)[C@H](CCN)NC(=O)[C@H]2CCCN2C(=O)[C@H](CCCN)NC(=O)[C@H](C(C)C)NC(=O)[C@H](Cc2ccc(-c3ccccc3)cc2)NC1=O [Example 1403] ({CH2CO}-NYDWL[Bip]V[Orn][dP][Dab]LVSCG-NH2; thioether N-14)"
  IC50, µM: 0.07
- molecule: "CC(C)C[C@@H]1NC(=O)[C@H](Cc2c[nH]c3ccccc23)NC(=O)[C@H](CC(=O)O)NC(=O)[C@H](Cc2ccc(O)cc2)NC(=O)[C@H](Cc2ccccc2)NC(=O)CSC[C@@H](C(=O)NCC(N)=O)NC(=O)[C@H](CO)NC(=O)[C@H](C(C)C)NC(=O)[C@H](CC(C)C)NC(=O)[C@H](CCCCN)NC(=O)CN(C)C(=O)[C@H](C)N(C)C(=O)[C@H](C(C)C)NC(=O)[C@H](Cc2ccc(-c3ccccc3)cc2)NC1=O [Example 1051] ({CH2CO}-FYDWL[Bip]V[NMeA][Sar]KLVSCG-NH2; thioether N-14)"
  IC50, µM: 0.11
- molecule: "CC(C)C[C@@H]1NC(=O)[C@H](C)NC(=O)[C@H]2CCCN2C(=O)[C@H](C)N(C)C(=O)[C@H](CCC(=O)O)NC(=O)[C@H](Cc2ccc(-c3ccccc3)cc2)NC(=O)[C@H](CC(C)C)NC(=O)[C@H](Cc2c[nH]c3ccccc23)NC(=O)[C@H](CC(=O)O)NC(=O)[C@H](Cc2ccc(O)cc2)NC(=O)[C@H](Cc2ccccc2)NC(=O)CSC[C@@H](C(=O)N[C@@H](C)C(N)=O)NC(=O)[C@H](CO)NC(=O)[C@H](C(C)C)NC1=O [Example 1028] ({CH2CO}-FYDWL[Bip]E[NMeA][dP]ALVSCA-NH2; thioether N-14)"
  IC50, µM: 0.05
- molecule: "CC(C)C[C@@H]1NC(=O)CSC[C@@H](C(=O)NCC(N)=O)NC(=O)[C@H](CO)NC(=O)[C@H](C(C)C)NC(=O)[C@H](CC(C)C)NC(=O)[C@H](CC(N)=O)NC(=O)CN(C)C(=O)[C@H](C)N(C)C(=O)[C@H](C(C)C)NC(=O)[C@H](Cc2ccc(-c3ccccc3)cc2)NC(=O)[C@H](CC(C)C)NC(=O)[C@H](Cc2c[nH]c3ccccc23)NC(=O)[C@H](CC(=O)O)NC(=O)[C@H](Cc2ccc(O)cc2)NC1=O [Example 1141] ({CH2CO}-LYDWL[Bip]V[NMeA][Sar]NLVSCG-NH2; thioether N-14)"
  IC50, µM: 0.61

Give the measured IC50 of CC(C)C[C@@H]1NC(=O)[C@H](CCCNC(=N)N)NC(=O)[C@H](Cc2ccccc2)N(C)C(=O)[C@H](C)N(C)C(=O)[C@H](CCCNC(=N)N)NC(=O)[C@H](Cc2ccc(-c3ccccc3)cc2)NC(=O)[C@H](C(C)C)NC(=O)[C@H](Cc2cccc3ccccc23)NC(=O)[C@H](CC(=O)O)NC(=O)[C@H](Cc2ccc(O)cc2)NC(=O)[C@H](Cc2ccccc2)NC(=O)CSC[C@@H](C(=O)NCC(N)=O)NC(=O)[C@H](CO)NC(=O)[C@H](C(C)C)NC1=O [Example 1240] ({CH2CO}-FYD[1Nal]V[Bip]R[NMeA][NMeF]RLVSCG-NH2; thioether N-14) .
0.17

Give the measured IC50 of CC(C)C[C@@H]1NC(=O)[C@H](CCCNC(=N)N)NC(=O)[C@H](Cc2ccccc2)N(C)C(=O)[C@H](C)N(C)C(=O)[C@H](CCCNC(=N)N)NC(=O)[C@H](Cc2ccc(-c3ccccc3)cc2)NC(=O)[C@H](C(C)C)NC(=O)[C@H](Cc2c[nH]c3ccccc23)NC(=O)[C@H](CC(=O)O)NC(=O)[C@H](Cc2ccc(O)cc2)NC(=O)[C@H](Cc2cnc[nH]2)NC(=O)CSC[C@@H](C(=O)NCC(N)=O)NC(=O)[C@H](CO)NC(=O)[C@H](C(C)C)NC1=O [Example 1058] ({CH2CO}-HYDWV[Bip]R[NMeA][NMeF]RLVSCG-NH2; thioether N-14) .
0.13

Give the measured IC50 of CC(C)C[C@@H]1NC(=O)C(CCC(=O)O)NC(=O)[C@H](Cc2ccccc2)N(C)C(=O)[C@H](C)N(C)C(=O)[C@H](CCCNC(=N)N)NC(=O)[C@H](Cc2ccc(-c3ccccc3)cc2)NC(=O)[C@H](C(C)C)NC(=O)[C@H](Cc2c[nH]c3ccccc23)NC(=O)[C@H](CC(=O)O)NC(=O)[C@H](Cc2ccc(O)cc2)NC(=O)[C@H](Cc2ccccc2)NC(=O)CSC[C@@H](C(=O)NCC(N)=O)NC(=O)[C@H](CO)NC(=O)[C@H](C(C)C)NC1=O (some centres unmarked) [Example 1221] ({CH2CO}-FYDWV[Bip]R[NMeA][NMeF][ξE]LVSCG-NH2; thioether N-14) .
0.5
